# System: ECHCG
# method.description: Pre-emergence herbicidal activity, glasshouse pot test
# Assay type: in vivo
# measurement.conditions: rate 1000 g/Ha, evaluated after 13 days, scale 0-5
Quick rule: ECHCG damage score, application pre-emergence of at least 1 means yes (1), below that means no (0).

>>> class_assignment("C=Cc1cnc(N2C(=O)N(C)C(C)C2O)cc1C(F)(F)F (centres unmarked) [Compound A62]")
"yes (1)"
>>> class_assignment("CCOC1C(O)N(c2cc(C(F)(F)F)c(C)cn2)C(=O)N1C (centres unmarked) [Compound A52]")
"yes (1)"
>>> class_assignment("CON1C(=O)N(c2cc(C(F)(F)F)c(C)cn2)C(O)C1C (single isomer, unassigned) [Compound A58]")
"yes (1)"
>>> class_assignment("CON1CC(O)N(c2cc(C(F)(F)F)ccn2)C1=O (centres unmarked) [Compound A36]")
"yes (1)"
>>> class_assignment("CCOC1C(OC(=O)[C@@H]2[C@@H](C=C(Cl)Cl)C2(C)C)N(c2cc(C(F)(F)F)ccn2)C(=O)N1C (some centres unmarked) [Compound A98]")
"no (0)"

Could you now consider this next molecule?
Hi team, for CN1C(=O)N(c2cc(C(F)(F)F)ccn2)C(O)C1C(F)(F)F (centres unmarked) [Compound A33] , is the recorded ECHCG damage score, application pre-emergence at or above 1?
yes (1)
